- measurementDescription: yeast display, Sf9 membrane polyspecificity reagent, FACS + sequencing; frameworks hold sequencing errors

querySequence	polyreactivity (PSR sort gate)
QVQLVESGGGLVQAGGSLRLSCAASGSIFTVYTMGWYRQAPGKVRELVAAINSRGGTTYYADSVKGRFTISRDNAKNTLYLQMNSLKPEDTAVYYCAAKQRPKSYGPGHYYWGQGTQVTVSS	high polyreactivity
QVQLVESGGGLVQAGGSLRVSCAASGSIFKNNPMGWYRQAPGKERELVDANRYSGGRTYYAHSVKGRFTISRDHAKNTVYIQMNSLKPEVTAVYDCAAGSIQYRPTYTGDYWGQGSQVTVSS	high polyreactivity

====

- measurementDescription: yeast display, Sf9 membrane polyspecificity reagent, FACS + sequencing; frameworks hold sequencing errors
measuredParameter: polyreactivity (PSR sort gate)

querySequence	measuredParameter	reading
QVQLVESGGGLVQAGGSLRLSCAASGLILKYYAMGWDRPAPGTEREFDAALTRRGGITYYADSVKGRFSISRDNAKNTVYLQMNSLKPEDTAVYYCAADPKLGSLAYWRYSYPLYDYWGQGTQVTVSS	polyreactivity (PSR sort gate)	low polyreactivity
QVQLVESGGGLVQAGGSLRLSCAASGITFDSYAMGWYRQAPGKERELVAAISYSGGSTYYADSVKGCFTISRDNAKNTVYLQMNSLKPEDTAVYYCAAASDDDYDYWGQGTQVTVSS	polyreactivity (PSR sort gate)	low polyreactivity
QVRLVESGGGLVQAGGSLRLSCAASGSTFQINAMGWYRQAPGKEREFVAAITVSSGSTYYADSVKGRFTISRDNAKNTVYLQMNSLKPEDTAVYYCAATSKPLGLQTYGYWGQGTQVTVSS	polyreactivity (PSR sort gate)	low polyreactivity

====

- measurementDescription: yeast display, Sf9 membrane polyspecificity reagent, FACS + sequencing; frameworks hold sequencing errors
measuredParameter: polyreactivity (PSR sort gate)

# example entries with known answers
querySequence	measuredParameter	reading
QVQLVESGGGLVQAGGSLRLSCAASGTIFKSNSMGWYRQAPGKERELVAAISNGGITNYADSVKGRFTISRDNAKNTVYLQMNSLKPEDTAVYYCATSDVREIWVDYWGQGTQVTVSS	polyreactivity (PSR sort gate)	low polyreactivity
QDQLEESGGGLSQAGGSLRLSCAASGINFPSYTMGWSRQATGKERELVAAIDSGGSTYYADSVKGRFTISRDNAKNSVYLQMNSLIPEDTAVYYCAAEPDTYWYTYDYWGQGTQVSVSS	polyreactivity (PSR sort gate)	low polyreactivity
QVQLEESGGCLVQAGGSLRLSCAASGFTFRSYAMGWYRQAPGKERELVAAISSGGSTYYADSVKGRFTISRDNAKITVYLKMNSLKPEDTAVYYCAARRYYGYGHWGQGTHVTVSS	polyreactivity (PSR sort gate)	high polyreactivity
QVQLVESGGGLVQAGGSLRLSCAASGRTFARYAMGWYRPAPGKERELVAAISSSGVSSYYADSVKGRFTISRDNAKNTVYLQMNSLKPDDTAVYYCVTYRNWWYDYWGQGTQVTVSS	polyreactivity (PSR sort gate)	high polyreactivity
QVQLVESGGGLVQAGGSLRLCCAASGLIFRRYTMGWYRQAPGKERELVAAISWRVGRTYYADSVKGRFTISRDNAKNTVYLEMNSLKPEDTAVYYCAAILYQYDTPQVSSSRLDYWGQGTQVTVSS	polyreactivity (PSR sort gate)	high polyreactivity

In: Quick one: polyreactivity (PSR sort gate) for QVQLVESGGGLVQAGGSLRLSCAASGSTFESNAMGWYRQAPGKERELVASISGSGGSTFYADSVKGRFTISRDNAKNTVYLQMNSLKPEDTAVYYCNRGRDEYDYWGQGTQVTVSS ?
Out: low polyreactivity

In: What does the record list as polyreactivity (PSR sort gate) for QVQLVESGGGLVQAGGSLRLSCAASGNTFTTNAMGWYRQAPGKERELVAAIRWRADSTYYADSVKGRFTISRDNAKNTVYLQMNSLKPEDTAVYYCASRYSLRYYYWGQGTQVTVSS ?
Out: low polyreactivity

In: Which polyreactivity (PSR sort gate) value belongs to QVQLVESGGGLVQAGGSLRLSCAASGFTFRGYAMGWYRQAPGKERELVAAISGSGGRTHYADSVKGRFTISRDNAKNTVYLQMNSLKPEDTAVYYCNAVPYSRPLGNNYWGQGTQVTVSS ?
Out: high polyreactivity

In: Could you tell me which polyreactivity (PSR sort gate) is on file for QVQLVESGGGLVQAGGSLRLSCAASGFTIAVYVMGWYRQAPGNERELVATISFSVGSTYYADSVKGRFTISRDNAKNTVYLLMNCLKPEVTAVYYCNADPPPEYYPDKDNSWGQGTQVTVSS ?
Out: low polyreactivity

In: So what does the record say about polyreactivity (PSR sort gate) for QVQLVESGGGLVQAGGSLRLSCAASGFTFVDNAMGWYRQPPRKERELVAAISWTGVGSTYYADSVKGRFTISRDNAKNTDYLQMNSLKPEDTAVYYCAADGLSRGVPDEFDYWGQGTQVTVSS ?
Out: low polyreactivity

In: Which polyreactivity (PSR sort gate) is listed for QVQLVESGGGLVQAGGSLRLSCAASGRIFYSYAMGWYRQAPGKERELVARISSGGSTNYADSVKGRFTISRDNAKNTVYLQMNSLKPEDTAVYYCAAATIWSGVHYGYWGQGTQVNVSS ?
Out: low polyreactivity

In: I am curious: what polyreactivity (PSR sort gate) value has been reported for QVQLVESRGGLVQAGGSLRLSSAASGFIFDDNAMGWYRQAPGKERQLVAAITSGGGSTYYADSVKGRFTISRDNAKNTVYLQMNSLKPDDTAVYSCNAKLFIRWFTYDYWGQGTQVTVSS ?
Out: low polyreactivity

In: Consider the sequence shown here: QVQLVESGGRLVQAGGSLLLSCDASGSIFRHYAMGWYRQAPWQERELVAAISAIGGSTYADSVKGRFTISRDNAKNTVYLQMNSLIPEDTGVYYCNARSYTSYVYHEAGEFDYWGQGTQVTVSS What is its recorded polyreactivity (PSR sort gate)?
Out: low polyreactivity

In: Query (sequence): QVQLVESLGGLVQAGGSLRLSCAASGRTFPGYAMGWYRQAPGKERELVAAISYTGTRTYYADSVKGRFTISRDNAKNTVYLQMNSLKPEDTAVYFCAAGVQRVSGSYGYWGQGTQVTVSS ; field requested: polyreactivity (PSR sort gate)
Out: high polyreactivity

In: Looking for the measured polyreactivity (PSR sort gate) of QVQLVESGGGLVQAVGSLRLSCAASGLTFYSNAMGWYRQAPGKERELVATISQDGGRTYADSLKGRFTISRDNAKNTVYLQMNSLKPEDTAVYYCAKVRERINYDYWGQGTQVTVSS , can you help?
Out: low polyreactivity

In: Fill in: polyreactivity (PSR sort gate) of QVQHVESGGGLVQAGGSLRLSCAASGFIFNRNAMGWYRQAPGKERELVAAISTRGSTYYADSVKGRFTISRDNAKNTDYLQMNSLKPEDTAVYYCAKAVYVDQGTYYYCGQGTQVTVSS is ___
Out: low polyreactivity

In: Param item = QVQLVESGGVLVQAGGSLRLSCAASGFTFQAYTMGWYRQAPVKERELVAAISRSGGRTYYADSVKGRFTISRDNAKNTVYLQMNSLKPEDTAVYYCAKRTTYSDDYWGQGTQVTVSS ; retrieve measured polyreactivity (PSR sort gate).
Out: high polyreactivity

In: polyreactivity (PSR sort gate) lookup needed for QVQLVESGGGLVQAGGSLRLSCAASGRTFDDNAMGWYRQAPGKEREFVADIDWSGGDTYYADSVKGRLTISRDNAKNTVYLQMNSLKPEDTAVYYCAARPIISVGRSRYDYWGQGTQVTVSS , thanks.
Out: high polyreactivity

In: Could you share which polyreactivity (PSR sort gate) value was measured for QVQLVESGGGLVQAGGSLRLSCAASGSTFNGYTMGWYRQAPGKERELVAAISKSGGRTYYADSVKGRFTISRDNAKNTVYLQMNSLKPEDTAVYYCAAHFRALGIYYTYDYWGQGTQVTVSS ?
Out: high polyreactivity

In: Need polyreactivity (PSR sort gate), item QVQLQESGGGLVQAGGSLLSCAASGTISYYREMGWYRQAPGKERELVAGIGVGTITYYADSVKGRFTISRHNAINTVYMQMNSLKPEDTAVYYCAAHIDGNDSHAYWGQGTQVTVSS
Out: low polyreactivity

In: // returns reported polyreactivity (PSR sort gate) for input QVQLVESGGGLVQAGGSLRLSCAASGYTFYVYTMGWYRQAPGKERELVAAISGSGTSTYYADSVKGRFTISRDNAKNTVYLQMNSLKPEDTAVYYCAAEDYSRDVYSYDYWGQGTQVTVSS
Out: low polyreactivity

====

- measurementDescription: yeast display, Sf9 membrane polyspecificity reagent, FACS + sequencing; frameworks hold sequencing errors
measuredParameter: polyreactivity (PSR sort gate)

// below: answered sequences
querySequence	polyreactivity (PSR sort gate)
QVQLQESGGGLVQAGGSLLSCAASGTISWDDEMGWYLQAPGNERELVAGIAGGGNTNYADSVKGRFTISRDNAKNTVYLQMNSLDTAVYYCAVVGFGRGTHIYWGQGTQVTVSS	high polyreactivity
QVQLVESGGGLVQAGGSLRLSCAASGLIFDPNTMGWYRQAPGKERELVAAISSGGDTNYADSVKGRFTISRDNAKNTVYLQMNSLKPEDTAVYYCAAERYYFPRSYRYGYWGQGTQVTVSS	low polyreactivity
QVQLVESGGGLVQAGGSLLLSCAASGRTFNYIAMGWYRQAPGKERELVAAISQGGGSTYYADSVKGRFTISRDNAKNTVYLQMNSLKPEVTAVSYFAADTWWYGKYDYWGQGTQVTVSS	low polyreactivity
QVQLVESGGGLVQAGGSLRLSCAASGITFFRYTMGWYRQAPGKERELVAAINIRGTRTYYADSVKGRFTISRDNAKNTVYLQMNSLKPEDTAVYYCAAGYAYRYSGLSYDVDYWGQGTQVTVSS	high polyreactivity
QVHLVESGGGLVQAGGSLRLSSAASGFTFPWYAMGWYRQAPGKERELVATITRGGSTYYADSVKGRFTISRDNAKNTVYLQMNSLKPEDTAVYYCAVTYWRYHSYSPYDYWGQGTQVTVSS	high polyreactivity
QVQLVESGGGLVQAGGSLRLSCATSGSTSYPYAMGWYRQAPGKERELVAAISTSGSTTYYADSVKVRFTLSRDNAKKTVYLQMNSLKPEDTAVYYCAKGVNFSQYPFSAYGDGGRYDYWGQGTQVTVSS	low polyreactivity

In: Endpoint output: polyreactivity (PSR sort gate) of QVQLVESGGGLVQAGGSLRLSCDASGRIFSRYAIGWYRQAPGKERELVAAITQSGTSTYYADSVKGRFTISRDNAKNTVYLQMNSLNPEDTAVYYCNAYRQYRYDYWGQGTQVTVSS . Value?
Out: low polyreactivity
